Conditions Used: in dichloromethane, 298.15 K
Test Readout: solubility (mole fraction)

Q. Query: solubility (mole fraction); subject: `FC(F)(F)c1cccnc1Cl`
A. 0.625

----------
Conditions Used: in dichloromethane, 283.15 K
Test Readout: solubility (mole fraction)

Q. Query: solubility (mole fraction); subject: `FC(F)(F)c1cccnc1Cl`
A. 0.41

----------
Conditions Used: in dichloromethane, 293.15 K
Test Readout: solubility (mole fraction)
Please reply with the value in numeric form only.

Q. Query: solubility (mole fraction); subject: `FC(F)(F)c1cccnc1Cl`
A. 0.551

----------
Conditions Used: in ethanol, 298.15 K
Test Readout: solubility (mole fraction)
Please reply with the value in numeric form only.

Q. Query: solubility (mole fraction); subject: `FC(F)(F)c1cccnc1Cl`
A. 0.635
